# test-details: Single ascending oral dose study in healthy volunteers: plasma pharmacokinetics
# Assay type: in vivo, human
# assay-context: human, plasma, oral, 100 mg; read-out: Tmax, Geometric Mean
property-name: Tmax (h)
Write the value in h as a bare number.

In: Bench note: what Tmax did "Cn1cc(S(=O)(=O)[C@@](C)(F)C2CCN(C(=O)Nc3ccon3)CC2)c(C(F)F)n1" show?
Out: 4.42

====

# test-details: Single ascending oral dose study in healthy volunteers: plasma pharmacokinetics
# Format: in vivo, human
# assay-context: human, plasma, oral, 72 Hours Postdose; 350 mg + 525 mg; read-out: Plasma concentration, Geometric Mean
property-name: concentration at 72 h (ng/mL)
Write the answer as a number in ng/mL, unit excluded.

In: What value of concentration at 72 h has been recorded for this entry: Cn1cc(S(=O)(=O)[C@@](C)(F)C2CCN(C(=O)Nc3ccon3)CC2)c(C(F)F)n1 [Compound I]
Out: 108

====

# test-details: Food effect cross-over study, 200 mg (25 mg tablets), healthy volunteers: plasma pharmacokinetics
# Format: in vivo, human
# assay-context: human, plasma, oral, 18 hours postdose, Fed, read-out: Plasma concentration, Mean
property-name: concentration at 18 h (ng/mL)
Numbers only here, please. The scale is ng/mL.

In: Please report the recorded concentration at 18 h for Cn1cc(S(=O)(=O)[C@@](C)(F)C2CCN(C(=O)Nc3ccon3)CC2)c(C(F)F)n1 [Compound I] .
Out: 2080

====

# test-details: Single ascending oral dose study in healthy volunteers: plasma pharmacokinetics
# Assay type: in vivo, human
# assay-context: human, plasma, oral, 525 mg; read-out: Vz/F, Mean
property-name: Vd/F (L)
Provide the reading as a plain figure in L.

In: Recorded Vd/F of Cn1cc(S(=O)(=O)[C@@](C)(F)C2CCN(C(=O)Nc3ccon3)CC2)c(C(F)F)n1 [Compound I] , please.
Out: 166

====

# test-details: Single ascending oral dose study in healthy volunteers: plasma pharmacokinetics
# Format: in vivo, human
# assay-context: human, plasma, oral, 25 mg, 24 Hours Postdose; 25 mg; read-out: Plasma concentration, Median
# Description: This example describes the first-in-human study of Compound I. Based on its mechanism of action, Compound I may offer a targeted therapy for patients with DCM caused by genetic or nongenetic mechanisms. […] The concentrations of Compound I in human plasma and urine were quantitated by high performance liquid chromatography with tandem mass spectrometric detection (LC MS/MS) (Biological sample analysis study report Alturas AD17-726). […]
property-name: concentration at 24 h (ng/mL)
Record the value in ng/mL, omitting the unit from your answer.

In: # lookup: concentration at 24 h of "Cn1cc(S(=O)(=O)[C@@](C)(F)C2CCN(C(=O)Nc3ccon3)CC2)c(C(F)F)n1"
Out: 124

====

# test-details: Single ascending oral dose study in healthy volunteers: plasma pharmacokinetics
# Assay type: in vivo, human
# assay-context: human, plasma, oral, doses up to 175 mg; read-out: mean apparent volume of distribution (Vz/F)
property-name: Vd/F

In: Entry under review: "Cn1cc(S(=O)(=O)[C@@](C)(F)C2CCN(C(=O)Nc3ccon3)CC2)c(C(F)F)n1" . Reported Vd/F?
Out: ~78 L

====

# test-details: Single ascending oral dose study in healthy volunteers: plasma pharmacokinetics
# Assay type: in vivo, human
# assay-context: human, plasma, oral, 100 mg, 6 Hours Postdose; 100 mg; read-out: Plasma concentration, Median
property-name: concentration at 6 h (ng/mL)
State the answer as a number, implicitly in ng/mL.

In: Which measured concentration at 6 h value corresponds to "Cn1cc(S(=O)(=O)[C@@](C)(F)C2CCN(C(=O)Nc3ccon3)CC2)c(C(F)F)n1" ?
Out: 935
